B1: tRNA (parent)
chain: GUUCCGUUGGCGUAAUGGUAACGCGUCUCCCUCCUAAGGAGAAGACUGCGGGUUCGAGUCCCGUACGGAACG

Variants of: B1
Experiment: yeast fitness relative to wild type (ratio to wild type); higher = fitter; tRNA-Arg(CCU), competitive growth, 37 C, YPD
This sample holds only a part of the variants without activity.
# Lookup of reported yeast fitness keyed by entry

>  <VARIANT_KEY>
G48C C60A

>  <yeast fitness>
0.644

$$$$
>  <VARIANT_KEY>
G39A G48C C61A

>  <yeast fitness>
≤ 0.5

$$$$
>  <VARIANT_KEY>
G10A U59C

>  <yeast fitness>
0.721

$$$$
>  <VARIANT_KEY>
U2G U3C A21C

>  <yeast fitness>
≤ 0.5

$$$$
>  <VARIANT_KEY>
A37C C49G A57C

>  <yeast fitness>
≤ 0.5

$$$$
>  <VARIANT_KEY>
A15U C27U A36G C61U C62U

>  <yeast fitness>
≤ 0.5

$$$$
>  <VARIANT_KEY>
C4A A14G

>  <yeast fitness>
0.72

$$$$
>  <VARIANT_KEY>
G18A C46A

>  <yeast fitness>
0.692

$$$$
>  <VARIANT_KEY>
C24A G56C C61G

>  <yeast fitness>
≤ 0.5

$$$$
>  <VARIANT_KEY>
U8C U13A C29A C31G

>  <yeast fitness>
≤ 0.5

$$$$
>  <VARIANT_KEY>
C22G G44C U47C A70C

>  <yeast fitness>
≤ 0.5

$$$$
>  <VARIANT_KEY>
G9A A43U G56C

>  <yeast fitness>
0.536

$$$$
>  <VARIANT_KEY>
C30U U35A G63C A65C

>  <yeast fitness>
≤ 0.5

$$$$
>  <VARIANT_KEY>
C22G A45U G48C

>  <yeast fitness>
0.511

$$$$
>  <VARIANT_KEY>
U26A A40U C61U

>  <yeast fitness>
0.656

$$$$
>  <VARIANT_KEY>
U8C A21U U53G A57C

>  <yeast fitness>
≤ 0.5

$$$$
>  <VARIANT_KEY>
C5A C31A A40C A43U A65G C66G

>  <yeast fitness>
≤ 0.5

$$$$
>  <VARIANT_KEY>
U8G U35A A70U

>  <yeast fitness>
≤ 0.5

$$$$
>  <VARIANT_KEY>
G10C A14U C66U

>  <yeast fitness>
≤ 0.5

$$$$
>  <VARIANT_KEY>
C5G C11A A20C C22G C30U C31G C61A G67A

>  <yeast fitness>
≤ 0.5

$$$$
>  <VARIANT_KEY>
C5U C24G A40C A45U

>  <yeast fitness>
≤ 0.5

$$$$
>  <VARIANT_KEY>
U7A C55A

>  <yeast fitness>
0.571

$$$$

// data source = the RNAGym collection of RNA variant scans (doi:10.1126/science.aae0568)
